Target: CYP2B6 (Homo sapiens)
Sequence (P20813 whole entry): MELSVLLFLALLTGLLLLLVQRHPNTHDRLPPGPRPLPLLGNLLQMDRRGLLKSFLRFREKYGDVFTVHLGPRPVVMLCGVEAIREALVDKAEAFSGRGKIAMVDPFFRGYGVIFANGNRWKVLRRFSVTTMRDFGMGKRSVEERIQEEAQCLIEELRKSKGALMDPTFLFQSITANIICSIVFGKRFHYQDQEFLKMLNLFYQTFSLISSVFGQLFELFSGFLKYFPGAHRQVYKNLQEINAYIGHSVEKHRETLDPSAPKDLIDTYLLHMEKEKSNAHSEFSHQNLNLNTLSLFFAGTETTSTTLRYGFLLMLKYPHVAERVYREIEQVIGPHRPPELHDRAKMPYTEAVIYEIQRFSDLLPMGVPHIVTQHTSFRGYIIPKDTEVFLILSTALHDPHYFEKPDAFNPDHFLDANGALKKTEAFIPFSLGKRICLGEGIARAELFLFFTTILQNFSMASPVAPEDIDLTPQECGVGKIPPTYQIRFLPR
Assay: 7-benzyloxyresorufin debenzylation activity in human hepatic microsome
Settings: microsomes, pH 7.4
valueType: activity at 10 μM
State the value with its unit after it.

So what does the record say about activity at 10 μM for C[C@]1(COc2ccc(N3CCC(Oc4ccc(OC(F)(F)F)cc4)CC3)cc2)Cn2cc([N+](=O)[O-])nc2O1 ? 118%

----------
Target: CYP2D6 (Homo sapiens)
Sequence (P10635 whole entry): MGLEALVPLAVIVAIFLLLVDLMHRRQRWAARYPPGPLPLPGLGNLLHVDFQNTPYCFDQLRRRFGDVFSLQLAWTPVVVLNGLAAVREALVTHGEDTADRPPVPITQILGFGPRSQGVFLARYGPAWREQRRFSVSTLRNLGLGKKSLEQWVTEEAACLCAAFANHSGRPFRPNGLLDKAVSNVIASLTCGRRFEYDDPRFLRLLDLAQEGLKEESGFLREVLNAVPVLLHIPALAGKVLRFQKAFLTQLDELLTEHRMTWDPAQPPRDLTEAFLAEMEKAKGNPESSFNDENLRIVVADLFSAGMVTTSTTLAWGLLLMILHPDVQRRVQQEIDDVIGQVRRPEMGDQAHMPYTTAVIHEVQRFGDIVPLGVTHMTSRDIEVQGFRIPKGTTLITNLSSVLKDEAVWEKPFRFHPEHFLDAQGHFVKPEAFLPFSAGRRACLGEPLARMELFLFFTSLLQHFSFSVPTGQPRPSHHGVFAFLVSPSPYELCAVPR
Experiment: bufuralol hydroxylation activity in human hepatic microsome
Details: liver microsomes, pH 7.4, probe bufuralol (20 μM)
valueType: activity at 1 μM (%)
Answers are plain numbers, in %.

Give its activity at 1 μM value. Item: C[C@]1(COc2ccc(N3CCC(Oc4ccc(OC(F)(F)F)cc4)CC3)cc2)Cn2cc([N+](=O)[O-])nc2O1 102
